- assayed.system: soluble histidine-tagged form of human TLR4/MD2 complex (human, UniProt Q9Y6Y9 19-160)
- Sequence (Q9Y6Y9 19-160, one chain of several): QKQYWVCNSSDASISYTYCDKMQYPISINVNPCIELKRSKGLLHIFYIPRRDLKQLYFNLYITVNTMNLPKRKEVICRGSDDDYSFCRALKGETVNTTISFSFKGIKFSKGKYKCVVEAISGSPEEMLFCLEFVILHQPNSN
- protocol.summary: competitive ELISA; 15C1 reference EC50 divided by variant EC50
measured.quantity: Relative binding potency increase (fold)
Report as a plain number; the unit fold is understood.

binder	measured.quantity	observed
1E11.E4 antibody (IgG1) (antibody, V domains shown) VH: QVQLQESGPGLVKPSDTLSLTCAVSGYSITGGYSWHWIRQPPGKGLEWMGYIHYSGYTDFNPSLKTRITISRDTSKNQFSLKLSSVTAVDTAVYYCARKDSGNYFPYWGQGTLVTVSS VL: EIVLTQSPDFQSVTPKEKVTITCRASQSISDHLHWYQQKPDQSPKLLIKYASHAISGVPSRFSGSGSGTDFTLTINSLEAEDAATYYCQQGYDYPLTFGGGTKVEIK	Relative binding potency increase	5
1E11.E1 antibody (IgG1) (antibody, V domains shown) VH: QVQLQESGPGLVKPSDTLSLTCAVSGYSITGGYSWHWIRQPPGKGLEWMGYIHYSGYTDFNPSLKTRITISRDTSKNQFSLKLSSVTAVDTAVYYCARKDSGNYFPYWGQGTLVTVSS VL: EIVLTQSPDFQSVTPKEKVTITCRASQSISDHLHWYQQKPDQSPKLLIKYASHAISGVPSRFSGSGSGTDFTLTINSLEAEDAATYYCQQGNDFPVTFGGGTKVEIK	Relative binding potency increase	4

Next binder, Relative binding potency increase to be filled in.
**Query** Value lookup for Relative binding potency increase; key = 1E11.C5 antibody (IgG1) (antibody, V domains shown) VH: QVQLQESGPGLVKPSDTLSLTCAVSGYPIWGGYSWHWIRQPPGKGLEWMGYIHYSGYTDFNPSLKTRITISRDTSKNQFSLKLSSVTAVDTAVYYCARKDSGNYFPYWGQGTLVTVSS VL: EIVLTQSPDFQSVTPKEKVTITCRASQSISDHLHWYQQKPDQSPKLLIKYASHAISGVPSRFSGSGSGTDFTLTINSLEAEDAATYYCQQGHSFPLTFGGGTKVEIK
**Result** 7

Values were extracted from patent US20130315914A1.
